# measured_on: PI-3 kinase γ (Homo sapiens, UniProt P48736)
# Sequence (P48736 whole entry): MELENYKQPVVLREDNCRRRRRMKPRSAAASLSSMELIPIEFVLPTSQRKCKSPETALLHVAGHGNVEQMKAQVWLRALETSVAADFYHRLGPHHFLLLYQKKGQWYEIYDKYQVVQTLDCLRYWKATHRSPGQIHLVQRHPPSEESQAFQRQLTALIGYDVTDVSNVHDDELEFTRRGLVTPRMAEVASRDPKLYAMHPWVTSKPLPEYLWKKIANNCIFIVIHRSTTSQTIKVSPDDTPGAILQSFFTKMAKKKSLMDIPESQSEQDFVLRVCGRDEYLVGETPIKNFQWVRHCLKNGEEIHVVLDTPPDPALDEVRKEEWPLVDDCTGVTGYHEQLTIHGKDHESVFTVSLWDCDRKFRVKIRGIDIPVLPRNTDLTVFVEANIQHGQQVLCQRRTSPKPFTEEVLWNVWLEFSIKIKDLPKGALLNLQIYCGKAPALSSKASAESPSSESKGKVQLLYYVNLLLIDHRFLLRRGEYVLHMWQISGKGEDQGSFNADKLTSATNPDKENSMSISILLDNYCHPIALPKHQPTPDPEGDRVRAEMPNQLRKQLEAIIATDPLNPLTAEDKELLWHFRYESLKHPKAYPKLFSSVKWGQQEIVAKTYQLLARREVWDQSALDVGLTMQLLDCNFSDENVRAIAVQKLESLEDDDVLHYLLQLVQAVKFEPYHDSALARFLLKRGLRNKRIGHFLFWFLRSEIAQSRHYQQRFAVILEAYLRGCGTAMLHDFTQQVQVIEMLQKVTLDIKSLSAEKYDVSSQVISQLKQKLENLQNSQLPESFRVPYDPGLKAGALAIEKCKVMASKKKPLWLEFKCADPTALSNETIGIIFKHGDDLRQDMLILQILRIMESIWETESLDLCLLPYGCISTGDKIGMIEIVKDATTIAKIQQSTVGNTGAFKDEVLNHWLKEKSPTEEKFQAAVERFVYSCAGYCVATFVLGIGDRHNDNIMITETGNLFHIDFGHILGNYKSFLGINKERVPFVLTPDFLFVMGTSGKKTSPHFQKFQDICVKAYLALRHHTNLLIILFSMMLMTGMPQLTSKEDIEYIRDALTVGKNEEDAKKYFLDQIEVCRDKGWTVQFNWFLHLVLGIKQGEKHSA
# test_summary: PI3Kγ inhibitory activity, PI3-kinase HTRF assay (inhibition ratio)
# Assay type: biochemical
# conditions_used: 0.5 h; compound at 50 μmol/L
Reported inhibition at 50 µM values for the following compounds.

compound	value_relation_sign	inhibition at 50 µM / %
CN1CCc2cc(N3CCn4nc(NC(=O)c5csc6ccccc56)cc43)ccc2C1=O [Compound I-373]	=	82
CC(=O)Nc1cc2n(n1)CCN2c1ccc2c(c1)CCN(C(=O)OC(C)(C)C)C2 [Compound I-301]	≥	95
CN1CCc2cc(N3CCn4nc(NC(=O)c5ccc(Br)s5)cc43)ccc2C1=O [Compound I-365]	=	81
COc1cc(N2CCc3nc(NC(=O)NC4CCC(C(C)(C)C)CC4)sc3C2)nc(OC)n1 (stereo not drawn) [Compound I-290]	=	88
CN1CCc2cc(N3CCn4nc(NC(=O)C5CCN(C(=O)OC(C)(C)C)C5)cc43)ccc2C1=O (stereo not drawn) [Compound I-350]	≥	95
CN1CCc2cc(N3CCn4nc(NC(=O)C(O)c5ccccc5)cc43)ccc2C1=O (stereo not drawn) [Compound I-352]	=	81
CNC(=O)Nc1nc2c(s1)CN(c1cc(OCC3CC3)nc(Cl)n1)CC2 [Compound I-325]	=	81
CN1CCc2cc(N3CCn4nc(NC(=O)C5CCCO5)cc43)ccc2C1=O (stereo not drawn) [Compound I-372]	=	84
CN1CCc2cc(N3CCn4nc(NC(=O)NC5CCCC5)cc43)ccc2C1=O [Compound I-369]	≥	95
CC(=O)Nc1cc2n(n1)CCN2c1ccc2c(c1)CCNC2 [Compound I-305]	=	84
CN1CCc2cc(N3CCn4nc(NC(=O)C5CCNC5)cc43)ccc2C1=O (stereo not drawn) [Compound I-355]	=	92
CN1CCc2cc(N3CCn4nc(NC(=O)CC5CCN(C(=O)OC(C)(C)C)C5)cc43)ccc2C1=O (stereo not drawn) [Compound I-351]	≥	95
